Where do the numbers come from? From PubChem BioAssay (NCATS).

Test: qHTS of pediatric cancer cell lines to identify multiple opportunities for drug repurposing: Primary screen for OHS-50 cells (AID 1347103); also: potency is read from the fitted curve at half-maximal effect; nearly all actives have a fitted effect of over 40% in size
Details: OHS-50 osteosarcoma viability, CellTiter-Glo luminescence, 48 h; series mostly up to 57.3 µM
Results filed as inconclusive are left out. Calls of active or inactive are those of the source. Calls follow the shape of the dose curve; as a rule, active = well fitted cell-killing curve with a large enough effect; inconclusive = small, poorly fitted or top-dose-only effect; inactive = no such curve, though single readings can be large or run the other way.
quantity: Potency

Fill in the blank: the reported Potency of COc1cc(C)c(Sc2cnc(NC(=O)c3ccc(CNC(C)C(C)(C)C)cc3)s2)cc1C(=O)N1CCN(C(C)=O)CC1 (stereo not drawn) is ____.
4.85 µM (active)

Fill in the blank: the reported Potency of "Oc1ccc([C@@H]2Oc3ccc(O)cc3[C@@H]3CCC[C@@H]32)cc1" is ____.
24.3 µM (active)

###

Test system: HaCat
Assay: Cytotoxic Profiling of Annotated Libraries Using Quantitative High-Throughput Screening (AID 1296008); also: nearly all actives have a fitted effect of over 60% in size; also: potency is read from the fitted curve at half-maximal effect
Settings: Five cell lines viability, CellTiter-Glo ATP luminescence, 48-72 h
Results filed as inconclusive are left out. The source made the active and inactive calls. The call rests on the fitted dose curve; in most records, active means well fitted inhibition curve with a large enough effect; inconclusive means small, poorly fitted or top-dose-only effect; inactive means flat fitted curve, though single readings scatter.
quantity: Potency

Query Potency on HaCat for "COC(=O)[C@@H]1CC2=CC(=O)CC[C@]2(C)[C@@]23O[C@@H]2C[C@@]2(C)[C@H](CC[C@@]24CCC(=O)O4)[C@@H]13"
inactive

Query Potency on HaCat for "c1coc(CNc2ncnc3nc[nH]c23)c1"
inactive

Query Potency on HaCat for "CCOC(=O)[C@@H](N)Cc1ccc(-c2cc(O[C@H](c3ccc(Cl)cc3-n3ccc(C)n3)C(F)(F)F)nc(N)n2)cc1"
inactive

Query Potency on HaCat for "CC(C)N1[N]C(=C2C=c3cc(O)ccc3=N2)c2c(N)ncnc21"
11.8 µM (active)

Query Potency on HaCat for "C=CCNc1c(O)cc2c(O)c1C[C@@H](C)C[C@H](OC)[C@@H](O)[C@@H](C)C=C(C)[C@H](OC(N)=O)[C@@H](OC)C=CC=C(C)C(=O)N2"
0.372 µM (active)

Query Potency on HaCat for COC(=O)C1C2CC3c4[nH]c5cc(OC)ccc5c4CCN3CC2CC(OC(=O)c2cc(OC)c(OC)c(OC)c2)C1OC (stereo not drawn)
inactive

Query Potency on HaCat for "C[C@@H](Oc1ccc2[nH]nc(C=Cc3cnn(CCO)c3)c2c1)c1c(Cl)cncc1Cl"
3.32 µM (active)

Query Potency on HaCat for CC(C)C[C@H](NC(=O)CNC(=O)c1cc(Cl)ccc1Cl)B1OC(=O)CC(CC(=O)O)(C(=O)O)O1 (stereo partly drawn)
4.18 µM (active)

Query Potency on HaCat for "CN(C)CC(=O)N1CCC(c2ccc(NC(=O)c3ncc(C#N)[nH]3)c(C3=CCCCC3)c2)CC1"
inactive

Query Potency on HaCat for "C=C(C)[C@@H]1CC[C@]2(C)CC[C@]3(C)[C@H](CC[C@@H]4[C@@]5(C)CC[C@H](O)C(C)(C)[C@H]5CC[C@]43C)[C@@H]12"
inactive

***
Query Potency on HaCat for "CC(C)c1cnn2c(NCc3ccccc3)cc(NCCCCCCN)nc12"
inactive

Query Potency on HaCat for "OCCN1C[C@H](O)[C@@H](O)[C@H](O)[C@@H]1CO"
inactive

Query Potency on HaCat for "COC[C@H](NC(=O)c1cnc(C)s1)C(=O)N[C@@H](COC)C(=O)N[C@@H](Cc1ccccc1)C(=O)[C@@]1(C)CO1"
0.662 µM (active)

Query Potency on HaCat for "CC(C)NC[C@@H](C(=O)N1CCN(c2ncnc3c2[C@H](C)C[C@H]3O)CC1)c1ccc(Cl)cc1"
4.18 µM (active)

Query Potency on HaCat for "NC(=O)Nc1cc(-c2ccc(CN3CCOCC3)cc2)sc1C(N)=O"
0.332 µM (active)

Query Potency on HaCat for "NC1=N[C@H]2[C@H](CS[C@H]2CCCCC(=O)O)N1"
inactive

Query Potency on HaCat for "CS(=O)(=O)N1CCc2c(-c3cnc(N)nc3)nc(N3CCOCC3)nc21"
1.16 µM (active)

Query Potency on HaCat for "O=C(NCc1ccccc1)[C@H](Cc1ccccc1)NC(=O)[C@@H]1O[C@@H]1C(=O)NCCc1ccc(O)cc1"
inactive
